Origin of values: ChEMBL document CHEMBL1145119

- Target system: Fatty-acid amide hydrolase 1 (Rattus norvegicus) (UniProt P97612)
- Sequence (P97612 whole entry): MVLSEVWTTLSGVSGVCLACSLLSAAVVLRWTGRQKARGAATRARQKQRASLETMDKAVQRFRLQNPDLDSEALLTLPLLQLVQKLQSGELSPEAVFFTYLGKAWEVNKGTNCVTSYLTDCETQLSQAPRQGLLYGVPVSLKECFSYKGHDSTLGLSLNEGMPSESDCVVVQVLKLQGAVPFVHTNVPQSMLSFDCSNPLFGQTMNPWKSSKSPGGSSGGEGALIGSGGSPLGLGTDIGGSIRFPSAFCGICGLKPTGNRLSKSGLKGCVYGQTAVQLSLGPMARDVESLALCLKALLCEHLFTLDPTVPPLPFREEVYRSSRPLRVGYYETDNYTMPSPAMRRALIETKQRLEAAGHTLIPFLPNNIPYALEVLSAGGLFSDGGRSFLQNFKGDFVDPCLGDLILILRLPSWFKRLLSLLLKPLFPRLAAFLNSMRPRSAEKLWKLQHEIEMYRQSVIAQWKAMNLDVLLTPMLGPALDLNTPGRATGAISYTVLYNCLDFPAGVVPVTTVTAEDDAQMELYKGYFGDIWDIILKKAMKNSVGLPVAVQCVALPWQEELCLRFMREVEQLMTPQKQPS
- Measurement notes: Inhibition of fatty acid amide hydrolase (FAAH) from rat brain homogenates at 10 uM
- Format: tissue-based
Measurement label: inhibition (%)

Compound: CCCCCCCCCCCCCCCC(=O)NC1CCCCC1
Limit qualifier: =
Endpoint result: 8
//
Compound: CCCCCCCCCCCCCCCC(=O)OC1CCCCC1 [CYCLOHEXYL PALMITATE]
Limit qualifier: =
Endpoint result: 6
//
Compound: CCCCCCCCCCCCCCCC(=O)OCCBr
Limit qualifier: =
Endpoint result: 19
//
Compound: CCCCCCCCCCCCCCCC(=O)NC
Limit qualifier: =
Endpoint result: 35
//
Compound: CCCCCCCCCCCCCCCC(=O)NCCO
Limit qualifier: =
Endpoint result: 49
//
Compound: CCCCCCCCCCCCCCCC(=O)OC
Limit qualifier: =
Endpoint result: 18
//
Compound: CCCCCCCCCCCCCCCC(=O)NC(C)C
Limit qualifier: =
Endpoint result: 30
//
Compound: CCCCCCCCCCCCCCCCOC(=O)CC [HEXADECYLPROPIONATE]
Limit qualifier: <
Endpoint result: 0
//
Compound: CCCCCCCCCCCCCCCNC(=O)CCO
Limit qualifier: <
Endpoint result: 0
//
Compound: CCCCCCCCCCCCCCCC(=O)OCCCl
Limit qualifier: =
Endpoint result: 27
//
Compound: C=CCOC(=O)CCCCCCCCCCCCCCC
Limit qualifier: =
Endpoint result: 16
//
Compound: CCCCCCCCCCCCCCCC(=O)OC(C)(C)C
Limit qualifier: <
Endpoint result: 0
//
Compound: CCCCCCCCCCCCCCCCOC(C)=O
Limit qualifier: <
Endpoint result: 0
//
Compound: CCCCCCCCCCCCCCCC(=O)OCc1ccccc1
Limit qualifier: =
Endpoint result: 6
//
Compound: CCCCCCCCCCCCCCCC(=O)OC(C)C
Limit qualifier: <
Endpoint result: 0

* * *

- Target system: Cannabinoid receptor 1 (Homo sapiens) (UniProt P21554)
- Sequence (P21554 whole entry): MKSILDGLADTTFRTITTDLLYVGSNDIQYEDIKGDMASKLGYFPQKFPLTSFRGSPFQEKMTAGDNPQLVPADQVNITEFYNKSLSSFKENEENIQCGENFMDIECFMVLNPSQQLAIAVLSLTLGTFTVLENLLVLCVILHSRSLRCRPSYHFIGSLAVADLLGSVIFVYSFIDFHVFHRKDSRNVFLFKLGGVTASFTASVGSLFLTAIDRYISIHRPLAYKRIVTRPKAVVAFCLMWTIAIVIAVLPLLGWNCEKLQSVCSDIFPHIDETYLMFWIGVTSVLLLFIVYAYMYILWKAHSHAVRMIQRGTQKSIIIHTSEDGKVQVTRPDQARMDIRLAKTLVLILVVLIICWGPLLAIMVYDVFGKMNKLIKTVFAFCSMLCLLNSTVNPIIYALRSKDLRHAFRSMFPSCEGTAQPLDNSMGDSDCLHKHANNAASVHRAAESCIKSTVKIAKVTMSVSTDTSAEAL
- Measurement notes: Binding affinity against human Cannabinoid receptor 1 using CHO-hCB1 transfected cell membrane and [3H]CP-55940 as radioligand at 10 uM
Consider the following compounds and their measured inhibition readings.

Compound: CCCCCCCCCCCCCCCCOC(=O)CC [HEXADECYLPROPIONATE]
Target system: Cannabinoid receptor 1 (Homo sapiens) (UniProt P21554)
inhibition: 12%

Compound: CCCCCCCCCCCCCCCC(=O)OC
Target system: Cannabinoid receptor 1 (Homo sapiens) (UniProt P21554)
inhibition: 11%

Compound: CCCCCCCCCCCCCCCNC(=O)CCO
Target system: Cannabinoid receptor 1 (Homo sapiens) (UniProt P21554)
inhibition: 4%

Compound: CCCCCCCCCCCCCCCC(=O)NC1CCCCC1
Target system: Cannabinoid receptor 1 (Homo sapiens) (UniProt P21554)
inhibition: 34%

Compound: C=CCOC(=O)CCCCCCCCCCCCCCC
Target system: Cannabinoid receptor 1 (Homo sapiens) (UniProt P21554)
inhibition: 2%

Compound: CCCCCCCCCCCCCCCC(=O)NC(C)C
Target system: Cannabinoid receptor 1 (Homo sapiens) (UniProt P21554)
inhibition: 25%

Compound: CCCCCCCCCCCCCCCCOC(C)=O
Target system: Cannabinoid receptor 1 (Homo sapiens) (UniProt P21554)
inhibition: 10%

Compound: CCCCCCCCCCCCCCCC(=O)OCCCl
Target system: Cannabinoid receptor 1 (Homo sapiens) (UniProt P21554)
inhibition: 14%
